assay: in vitro; conditions: PAMPA
Listing of entries alongside the reported Papp.
Readout: Papp (×10⁻⁶ cm/s)

{"columns": ["Record Smiles", "Units Label", "Quantitative Readout"],
 "data": [
  ["NC(=O)N1CC=C(c2ccnc(NC(=O)C3CC3)c2)C1", "×10⁻⁶ cm/s", 0.53],
  ["O=C(Nc1cc(-c2ccc(-c3ncon3)s2)ccn1)C1CC1", "×10⁻⁶ cm/s", 9.4]
]}

* * *

assay: Cytotoxicity in HT-22 cells (PrestoBlue); details: mouse, HT-22 hippocampal neuronal cells
Listing of entries alongside the reported IC50 at 24 h.
Readout: IC50 at 24 h

{"columns": ["Molecule", "Result"],
 "data": [
  ["O=C(Nc1cc(-c2ccc(-c3ncon3)s2)ccn1)C1CC1 [Compound 36]", "> 100 µM"],
  ["NC(=O)N1CC=C(c2ccnc(NC(=O)C3CC3)c2)C1 [Compound 11]", "45.8 µM"],
  ["O=C(Nc1cc(-c2ccc(-c3ncon3)nc2)ccn1)C1CC1 [Compound 34]", "> 100 µM"]
]}

The reported numbers originate from paper PMC11378298.
